Entries and their melting point values follow.
Structures can show the parent of a compound that is named as a salt.

| Molecule | Measurement type | Result |
| --- | --- | --- |
| Fc1ccc(C2CCNC2)cc1F (centres unmarked) (as salt: hydrochloric acid salt) | melting point | 139 to 140 °C |

Q: Look at this molecule and give its reported melting point. Clc1ccc(C2CCNC2)cc1Cl (centres unmarked) (as salt: hydrochloric acid salt)
Ans: 136 to 137 °C

Q: Again, but for Fc1ccc(C2CCNC2)c(F)c1 (centres unmarked) (as salt: oxalic acid salt)
Ans: 116 °C

Q: Again, but for CN1CCC(c2ccc(F)c(F)c2)C1 (centres unmarked) (as salt: fumaric acid salt)
Ans: 140 to 142 °C

Q: Again, but for Fc1cc(F)cc(C2CCNC2)c1 (centres unmarked) (as salt: oxalic acid salt)
Ans: 199 to 200 °C
